Measured pIC50, listed per entry for reference.
target: TBK1 (Homo sapiens (Human), UniProt Q9UHD2); experiment: TBK1 low ATP kinase assay (in vitro assay 1); assay type: biochemical; settings: in vitro assay 1, read-out: TBK1 low ATP kinase assay IC50
Sequence (Q9UHD2 whole entry): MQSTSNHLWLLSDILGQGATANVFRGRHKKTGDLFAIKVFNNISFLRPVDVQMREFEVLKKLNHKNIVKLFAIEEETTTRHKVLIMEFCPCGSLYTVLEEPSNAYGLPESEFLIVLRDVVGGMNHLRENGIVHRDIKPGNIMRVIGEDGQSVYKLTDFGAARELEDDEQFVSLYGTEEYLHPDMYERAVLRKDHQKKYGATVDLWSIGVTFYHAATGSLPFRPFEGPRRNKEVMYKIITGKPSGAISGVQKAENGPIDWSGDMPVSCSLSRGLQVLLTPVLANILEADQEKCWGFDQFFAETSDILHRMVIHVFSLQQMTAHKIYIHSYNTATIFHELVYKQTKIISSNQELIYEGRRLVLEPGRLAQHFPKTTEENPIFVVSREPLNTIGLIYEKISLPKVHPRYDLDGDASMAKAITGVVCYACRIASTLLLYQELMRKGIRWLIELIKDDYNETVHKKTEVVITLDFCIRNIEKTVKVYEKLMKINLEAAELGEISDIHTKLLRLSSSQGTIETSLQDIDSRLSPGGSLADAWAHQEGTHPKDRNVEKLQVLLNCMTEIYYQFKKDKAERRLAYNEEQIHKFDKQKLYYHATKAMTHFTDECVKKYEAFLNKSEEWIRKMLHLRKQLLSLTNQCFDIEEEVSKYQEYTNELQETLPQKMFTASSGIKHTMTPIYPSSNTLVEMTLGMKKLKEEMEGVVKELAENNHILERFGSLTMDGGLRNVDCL
As a rule, pIC50 stands for the negative log10 of the concentration, concentration in M.

Before answering, review these 6 worked examples.
compound="COc1cc(-c2ccc3nc(Nc4cc(C(C)N5CCN(C(=O)CC(F)(F)F)CC5)ccn4)[nH]c3c2)ncn1 (single isomer, unassigned) [Example 34.03.01.B]" test_target="TBK1 (Homo sapiens (Human), UniProt Q9UHD2)" reported=7.30
compound=CC(C)Oc1cnccc1-c1ccc2nc(Nc3cc(CN4CCN(C(=O)CC(F)(F)F)CC4)ccn3)[nH]c2c1 test_target="TBK1 (Homo sapiens (Human), UniProt Q9UHD2)" reported=8.37
compound=Cc1nc(-c2ccc3nc(Nc4cc(CN5CCN(C(=O)CC(F)(F)F)CC5)ccn4)[nH]c3c2)c2ccsc2n1 test_target="TBK1 (Homo sapiens (Human), UniProt Q9UHD2)" reported=5.59
compound=O=C(C1CC1)N1CCN(Cc2ccnc(Nc3nc4ccc(-c5cnc(C6CC6)nc5)cc4[nH]3)c2)CC1 test_target="TBK1 (Homo sapiens (Human), UniProt Q9UHD2)" reported=5.65
compound=CN(C)c1nccnc1-c1ccc2nc(Nc3cc(CN4CCN(C(=O)C5CC5)CC4)ccn3)[nH]c2c1 test_target="TBK1 (Homo sapiens (Human), UniProt Q9UHD2)" reported=5.85
compound="COc1c(-c2ccc3nc(Nc4cc(C(C)N5CCN(C(=O)OC(C)(C)C)CC5)ccn4)[nH]c3c2)ncnc1N1CCC1 (single isomer, unassigned)" test_target="TBK1 (Homo sapiens (Human), UniProt Q9UHD2)" reported=8.59

Enquiry: Give its pIC50 value. Item: COc1cnccc1-c1ccc2nc(Nc3cc(CN4CCN(C(=O)C5CCC5)CC4)ccn3)[nH]c2c1
Return: 7.65

Enquiry: Cool, now COc1cncnc1-c1ccc2nc(Nc3cc(CN4CCN(S(=O)(=O)N5CCC(OC)CC5)CC4)ccn3)[nH]c2c1
Return: 7.41

Enquiry: Cool, now CC(c1ccnc(Nc2nc3ccc(-c4cc(N5CC(C(F)(F)F)C5)ncn4)cc3[nH]2)c1)N1CCN(C(=O)C2CC2)CC1 (single isomer, unassigned)
Return: 9.25

Enquiry: Cool, now CC(c1ccnc(Nc2nc3ccc(-c4cnn(CC5CC5(F)F)c4)cc3[nH]2)c1)N1CCN(C(=O)OC(C)(C)C)CC1 (single isomer, unassigned) [Example 55.01]
Return: 8.39

Enquiry: Cool, now CC(c1ccnc(Nc2nc3ccc(-c4cc(OCC5CC5)ncn4)cc3[nH]2)c1)N1CCN(C(=O)OC(C)(C)C)CC1 (single isomer, unassigned)
Return: 7.85

Enquiry: Cool, now O=C(CC(F)(F)F)N1CCN(Cc2ccnc(Nc3nc4ccc(-c5cc(N6CCCCC6)ncn5)cc4[nH]3)c2)CC1
Return: 8.54

###

target: TBK1 (Homo sapiens (Human), UniProt Q9UHD2); test: TBK1 low ATP kinase assay (in vitro assay 1); assay type: biochemical; conditions: in vitro assay 1, read-out: TBK1 low ATP kinase assay IC50
Observable: pIC50
As a rule, pIC50 stands for the negative log10 of the concentration, concentration in M.

Before answering, review these 3 worked examples.
cpd_smiles=O=C(CC(F)(F)F)N1CCN(Cc2ccnc(Nc3nc4ccc(-c5ccn[nH]5)cc4[nH]3)c2)CC1 observable=pIC50 reported=7.00
cpd_smiles=Cc1cc(-c2ccc3nc(Nc4cc(CN5CCN(C(=O)C6CCC6)CC5)ccn4)[nH]c3c2)ncn1 observable=pIC50 reported=7.73
cpd_smiles=Cc1cc(-c2ccc3nc(Nc4cc(CN5CCN(C(=O)C6CC6)CC5)ccn4)[nH]c3c2)nc(C)n1 observable=pIC50 reported=7.11

// switching to the query compound
Enquiry: Give its pIC50 value. Item: COc1c(-c2ccc3nc(Nc4cc(CN5CCN(C(=O)CC(F)(F)F)CC5)ccn4)[nH]c3c2)ncnc1N(C)CC1CC1
Return: 7.21

###

Measured IC50, listed per entry for reference.
target: TBK1 (Homo sapiens (Human)); experiment: TBK1 low ATP kinase assay (in vitro assay 1); format: biochemical; conditions: in vitro assay 1, read-out: TBK1 low ATP kinase assay IC50
Provide the reading as a plain figure in nM.

Before answering, review these 2 worked examples.
molecule="COc1c(-c2ccc3nc(Nc4cc(C(C)N5CCN(C(=O)CC(F)(F)F)CC5)ccn4)[nH]c3c2)ncnc1N1CC(F)(F)C1 (single isomer, unassigned) [Example 113.02]" test_target="TBK1 (Homo sapiens (Human))" observable=IC50 reported=1.6
molecule="COc1cncnc1-c1ccc2nc(Nc3cc(CN4CCN(C(=O)N(C)C)CC4)ccn3)[nH]c2c1 [Example 35.01.03]" test_target="TBK1 (Homo sapiens (Human))" observable=IC50 reported=59.1

Enquiry: Can you look up IC50 on TBK1 (Homo sapiens (Human)) for CNc1cc(-c2ccc3nc(Nc4cc(CN5CCN(C(=O)OC(C)(C)C)CC5)ccn4)[nH]c3c2)ncn1 [Example 150.01] ?
Return: 15

###

molecular target: TBK1 (Homo sapiens (Human), UniProt Q9UHD2); test: TBK1 low ATP kinase assay (in vitro assay 1); type: biochemical; details: in vitro assay 1, read-out: TBK1 low ATP kinase assay IC50
pIC50: −log10 of the molar value.
Mark not met for pIC50 values under 7, and met for everything at or above.

compound="O=C(CC(F)(F)F)N1CCN(Cc2ccnc(Nc3nc4ccc(-c5ncnc6ccoc56)cc4[nH]3)c2)CC1 [Example 168.02]" test_target="TBK1 (Homo sapiens (Human), UniProt Q9UHD2)" discrete_label=met
compound="COc1ccncc1-c1ccc2nc(Nc3cc(CN4CCN(C(=O)CC5CC5)CC4)ccn3)[nH]c2c1 [Example 14.02]" test_target="TBK1 (Homo sapiens (Human), UniProt Q9UHD2)" discrete_label="not met"
compound="O=C(C1CC1)N1CCN(Cc2ccnc(Nc3nc4ccc(-c5cnc(Cl)nc5)cc4[nH]3)c2)CC1 [Example 45.02.02]" test_target="TBK1 (Homo sapiens (Human), UniProt Q9UHD2)" discrete_label="not met"
compound="O=C(C1CC1)N1CCN(Cc2ccnc(Nc3nc4ccc(-c5cnn(CC6CC6)c5)cc4[nH]3)c2)CC1 [Example 39.01.03]" test_target="TBK1 (Homo sapiens (Human), UniProt Q9UHD2)" discrete_label=met
compound="CCOc1cnc(C)cc1-c1ccc2nc(Nc3cc(CN4CCN(C(=O)CC5CC5)CC4)ccn3)[nH]c2c1 [Example 09.03]" test_target="TBK1 (Homo sapiens (Human), UniProt Q9UHD2)" discrete_label="not met"
compound="COc1cnccc1-c1ccc2nc(Nc3cc(CN4CCN(C(=O)C5CC5)CC4)ccn3)[nH]c2c1OCC(C)C [Example 50.02]" test_target="TBK1 (Homo sapiens (Human), UniProt Q9UHD2)" discrete_label="not met"
compound="COc1c(-c2ccc3nc(Nc4cc(C(C)N5CCN(C(=O)CC(F)(F)F)CC5)ccn4)[nH]c3c2)ncnc1N1CCC1 (single isomer, unassigned) [Example 111.03]" test_target="TBK1 (Homo sapiens (Human), UniProt Q9UHD2)" discrete_label=met
compound="CC(C)Oc1cncnc1-c1ccc2nc(Nc3cc(C(C)N4CCN(C(=O)C5CCC5)CC4)ccn3)[nH]c2c1 (single isomer, unassigned) [Example 36.04]" test_target="TBK1 (Homo sapiens (Human), UniProt Q9UHD2)" discrete_label=met

Enquiry: Answer whether pIC50 of O=C(CC(F)(F)F)N1CCN(Cc2ccnc(Nc3nc4ccc(-c5ccncc5OCC(F)(F)F)cc4[nH]3)c2)CC1 [Example 05.01] is greater than or equal to 7.
Return: met

Enquiry: Cool, now CCN(C)c1cc(-c2ccc3nc(Nc4cc(CN5CCN(C(=O)CC(F)(F)F)CC5)ccn4)[nH]c3c2)ncn1 [Example 148.02]
Return: met

Enquiry: Cool, now CCN(C)c1cc(-c2ccc3nc(Nc4cc(CN5CCN(C(=O)OC(C)(C)C)CC5)ccn4)[nH]c3c2)ncn1 [Example 148.01]
Return: met

Enquiry: Cool, now COc1c(C)ncnc1-c1ccc2nc(Nc3cc(CN4CCN(C(=O)C5CC5)CC4)ccn3)[nH]c2c1 [Example 61.01.02]
Return: met

Enquiry: Cool, now COc1c(NC2CC2)ncnc1-c1ccc2nc(Nc3cc(CN4CCN(C(=O)C5CC5)CC4)ccn3)[nH]c2c1 [Example 108.03]
Return: met

Enquiry: Cool, now CC(c1ccnc(Nc2nc3ccc(-c4cnn(CC5CC5(F)F)c4)cc3[nH]2)c1)N1CCN(C(=O)OC(C)(C)C)CC1 (single isomer, unassigned) [Example 55.01.01]
Return: met

Enquiry: Cool, now Cc1c(-c2ccc3nc(Nc4cc(CN5CCN(C(=O)C6CC6)CC5)ccn4)[nH]c3c2)ccnc1OC(C)C [Example 11.01]
Return: not met

###

molecular target: TBK1 (Homo sapiens (Human), UniProt Q9UHD2); assay: TBK1 low ATP kinase assay (in vitro assay 1); assay type: biochemical; conditions: in vitro assay 1, read-out: TBK1 low ATP kinase assay IC50
pIC50: −log10 of the molar value.
Mark Not fulfilled for pIC50 values under 8, and Fulfilled for everything at or above.

molecule=O=C(C1CC1)N1CCN(Cc2ccnc(Nc3nc4ccc(-c5cc(NCC6CC6)ncn5)cc4[nH]3)c2)CC1 test_target="TBK1 (Homo sapiens (Human), UniProt Q9UHD2)" discrete_label=Fulfilled

Now consider a different molecule.
Enquiry: Answer whether pIC50 of COc1c(C)ncnc1-c1ccc2nc(Nc3cc(C(C)N4CCN(C(=O)C5CC5)CC4)ccn3)[nH]c2c1 (single isomer, unassigned) is greater than or equal to 8.
Return: Fulfilled
